ASSAY_COMMENT: physchem
ASSAY_CONDITIONS: 23 °C, pH 7.4, aqueous with cosolvent or surfactant or cyclodextrin, kinetic from dmso stock
PROPERTY_MEASURED: solubility kinetic

Kindly give each listed record's solubility kinetic.
1. O=C(O)CN1C(=O)/C(=C/c2ccc(-c3ccc(Cl)c(Cl)c3)o2)SC1=S
2. O=C(O)CN1C(=O)/C(=C/c2ccc(-c3cc(C(F)(F)F)ccc3Cl)o2)SC1=S
3. COc1ccc(-c2ccc(/C=C3\SC(=S)N(CC(=O)O)C3=O)o2)cc1Cl
4. O=C(O)CN1C(=O)/C(=C/c2ccc(-c3cccs3)s2)SC1=S

**Result**
< 10 µg/mL
< 10 µg/mL
< 10 µg/mL
< 10 µg/mL

Values compiled from patent US7947717B2.
